# apparent KD of K4 kissing-loop reporter annotations
System: K4 kissing-loop RNA reporter;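 note: bound reporter read as fluorescence of individual clusters on recovered sequencing chips by microscopy, with normalized cluster intensities fitted with a binding model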
method: apparent KD of K4 kissing-loop reporter; higher = weaker reporter binding
condition context: Eterna round: R107; input ligand: tryptophan 2.4 mM
parameter measured: apparent KD of K4 kissing-loop reporter (nM)

[[record]]
item_sequence = "GGGAGUAGUGCGGCCGCCACUGAGAAAGAAGAAGAAUAUAGUGAUGUUAUAUAGGAAAGGAAGAACAGGACCGGGCAUUAGAUUU [SSTRyptB.F]"
units_of_measure = "nM"
number = 180

[[record]]
item_sequence = "UGUGCUGUGUACUGUAAUGUUAUGCGGGAUACCAGAGUCUUUUUAUUCCCUUGGCAGCUUGAGUGAUGUUUGAUGCUGUUCUUGU [kiokmullin]"
units_of_measure = "nM"
number = 314

[[record]]
item_sequence = "UGACUGGACUGAAGGAGCGAGCGAGACAAAGUCUCGAAAUCCUAGUGAUGUUAGGAAAUAACUCAGGUAGGUCGCAGUCUAGUCU [ArgBS 9 #SwitchBubble #StaticStem]"
units_of_measure = "nM"
number = 173

